target system: T1, cynomolgus monkey soluble IL-6R (from cynomolgus monkey serum) (cynomolgus monkey, UniProt P08887 20-365 (human entry))
T1 construct: Natural soluble IL-6R present in diluted normal cynomolgus monkey serum; also called cyno IL6R; cynomolgous sIL-6R
T1 chain: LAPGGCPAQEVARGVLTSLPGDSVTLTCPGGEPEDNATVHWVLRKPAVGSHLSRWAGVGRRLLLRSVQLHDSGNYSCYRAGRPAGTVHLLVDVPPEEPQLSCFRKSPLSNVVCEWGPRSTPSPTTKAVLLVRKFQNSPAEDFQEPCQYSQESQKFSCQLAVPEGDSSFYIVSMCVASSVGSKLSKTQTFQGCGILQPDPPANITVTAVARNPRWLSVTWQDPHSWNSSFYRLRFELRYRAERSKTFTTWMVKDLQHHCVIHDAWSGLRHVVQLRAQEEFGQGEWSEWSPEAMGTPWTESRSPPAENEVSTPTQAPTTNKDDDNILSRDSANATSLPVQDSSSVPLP
measurement description: anti-cynomolgus IL-6R gp130 ELISA (competition): 10x diluted cynomolgus serum, 50 ng/mL human IL-6, coated human gp130
assay metric: log10 of IC50 (log10 of the value in nM)
Heads up: the numbers are on a log10 scale; they represent IC50 in nM.

binder	assay metric	experimental value
20A11 (prior art comparative example) (VHH, Prior art anti-IL-6R polypeptide disclosed in WO 2010/115998; also called PMP20A11) VHH: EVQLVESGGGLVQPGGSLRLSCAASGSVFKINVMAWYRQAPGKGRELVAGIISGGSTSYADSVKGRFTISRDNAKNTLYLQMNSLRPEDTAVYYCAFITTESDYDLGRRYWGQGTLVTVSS	log10 of IC50	-0.97
5G9 (VHH, also called VIL-5G9; 'Wild type' 5G9; not shown: C-terminal Flag and 6xHis tags from vector pMEK222) VHH: EVQLVESGGGLVQAGGSTRLTCKASGSIFNINSINVMAWYRQAPGKQRELVAIIGKGGGTNYADFVKGRFTISRDAAKNTVNLQMNSLKPEDTAVYYCYADYEDRDSPFNASWGQGTQVTVSS	log10 of IC50	-0.09
3C12 (VHH, Llama ICVD from library 37-3, produced in E. coli; also called VIL-3C12; not shown: C-terminal Flag and 6xHis tags from vector pMEK222) VHH: EVQLVESGGGLAQLGGSLRLSCVASGNIFSSNTAGWFRQAPGKQREWVAGISIGGMPAYADSVKGRFTISRDNAKNTVYLQMNSLKPEDTAVYYCATGGTEYDYWGQGTQVTVSS	log10 of IC50	0.62
7F6 (VHH, also called VIL-7F6; 'Wild type' 7F6; not shown: C-terminal Flag and 6xHis tags from vector pMEK222) VHH: EVQLVESGGGLVQAGGSTRLTCLASGSISSINVIGWYRQAPGKQRELVAMIGRGEGANYGDFAKGRFTISRDNSKNTVYLQMNSLKPEDTAVYYCYADYEDRDSPFNGSWGQGTQVTVSS	log10 of IC50	-0.47

Field: next binder
Exam item: Name the reported log10 of IC50 value associated with the binder 4D3 (VHH, Llama ICVD from library 46-3, produced in E. coli; also called VIL-4D3; not shown: C-terminal Flag and 6xHis tags from vector pMEK222) VHH: EVQLVESGGGSVQAGESLTLSCVASISTFSQNAMGWFRQAAGKRRESVARISSSGNVGYTDAVKGRFTMSRDNAKKTVYLQMNSLKPEDTAVYYCNAYSMSGELAAPWGQGTQVTVSS
Marked response: -0.43
